Biological target: CD28 (Homo sapiens, UniProt P10747)
Test: Jurkat/IL2 + CHO/OKT3 +/- PD-L1 reporter assay: PD-L1-dependent CD28 costimulation
Format: cell-based
Set-up: host or cells: Jurkat cells expressing an IL-2-luciferase reporter
Settings: Table E21; Jurkat/IL2 + CHO/OKT3/PD-L1; 5.0 nM
quantity_name: Fold Increase over WT CD80-IgV-Fe (fold)
Numbers only, in fold.

Consider the worked cases shown below.
E35D/M47L/V68M (protein) VIHVTKEVKEVATLSCGHNVSVEELAQTRIYWQKDKKMVLTMMSGDLNIWPEYKNRTIFDITNNLSIMILALRPSDEGTYECVVLKYEKDAFKREHLAEVTLSVKAD | 6.5
M47V (protein) VIHVTKEVKEVATLSCGHNVSVEELAQTRIYWQKEKKMVLTMMSGDVNIWPEYKNRTIFDITNNLSIVILALRPSDEGTYECVVLKYEKDAFKREHLAEVTLSVKAD | 3.9
E35D/M47V (protein) VIHVTKEVKEVATLSCGHNVSVEELAQTRIYWQKDKKMVLTMMSGDVNIWPEYKNRTIFDITNNLSIVILALRPSDEGTYECVVLKYEKDAFKREHLAEVTLSVKAD | 4.7

Proceed to the following item.
Please report Fold Increase over WT CD80-IgV-Fe for the following molecule: D46V/M47L/L85Q (protein) VIHVTKEVKEVATLSCGHNVSVEELAQTRIYWQKEKKMVLTMMSGVLNIWPEYKNRTIFDITNNLSIVILALRPSDEGTYECVVQKYEKDAFKREHLAEVTLSVKAD
5.2
